All figures here come from PubChem BioAssay.

Documented viability across a set of compounds
Test: MRP1 drug-resistance reversers in H69AR cells – cell-based, doxorubicin co-treatment, pilot screen (AID 601)
Settings: H69AR cells, CellTiter-Glo, 72 h; compound alone cytotoxicity; at 10 µM
Report the figure in % without appending any unit label.

As a guide, the following entries are already answered.
>>> observed_measurement("C(=N\\n1cnnc1)/c1cccc(OCCOc2ccccc2)c1")
94.6
>>> observed_measurement("O=C1CC(c2ccccc2)CC(O)=C1C=NCCN1CCOCC1 (stereo unspecified)")
102
>>> observed_measurement("COc1ccccc1NC(=O)N(C1CCCC1)C1CCN(C(C)=O)CC1")
88.3
>>> observed_measurement("O=C1CN(c2nc3ccccc3n3cnnc23)CC(=O)N1CCc1ccccc1")
102
>>> observed_measurement("CCCCC(=O)NCCc1cc2c(C)ccc(C)c2[nH]c1=O")
85.1
>>> observed_measurement("CC(C)(C)SCCNC(=O)CN1C(=O)c2ccccc2S1(=O)=O")
106
>>> observed_measurement("COCc1nnc(NC(=O)c2ccc(S(=O)(=O)N(C)c3ccccc3)cc2)o1")
43.7
>>> observed_measurement("O=C(COc1ccc2ccccc2c1)N1CCCC1")
90

# query: viability of entry `COCCn1c(=N)c(C(=O)NCCc2ccccc2)cc2c(=O)n3cccc(C)c3nc21` 92.5

Request: `Cn1c(=O)c2c(nc(CN3CCN(Cc4ccccc4)CC3)n2Cc2cccc(Cl)c2)n(C)c1=O` 57.7

Request: `Cn1c(C(=O)NCCCN2CCN(c3ccc(F)cc3)CC2)cc2c(=O)n(C)c3ccccc3c21` 84.1

----------
Assay: H69AR cell proliferation blockers – human, duplicate replicates, primary screen (AID 580);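 further: 100% = mean luminescence of untreated wells and 0% = no signal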
Settings: H69AR lung tumor cells viability, ATP luminescence, 72 h; at 10 µM; stronger effect = lower value
Documented viability across a set of compounds
Report the figure in % without appending any unit label.

As a guide, the following entries are already answered.
>>> observed_measurement("CC(C)C(CO)NC(=O)CC(=O)NC(CO)C(C)C (stereo unspecified)")
103
>>> observed_measurement("COc1ccc(N(CC(=O)Nc2ccc3c(c2)OCCO3)S(=O)(=O)c2cccnc2)cc1")
92.5
>>> observed_measurement("COCCOC(=O)C1=C(C)OC(N)=C(C#N)C1c1ccc2c(c1)OCO2 (stereo unspecified)")
84.8
>>> observed_measurement("O=C(c1cccc(F)c1)N1CCc2ccccc21")
98.9
>>> observed_measurement("CCOC(=O)N1CCN(Cc2nc3c(c(=O)n(C)c(=O)n3C)n2Cc2ccc(F)cc2)CC1")
72.6

# query: viability of entry `Cc1ccc(NC(=O)CN(c2ccc3c(c2)OCO3)S(=O)(=O)c2c(C)n[nH]c2C)cc1` 93.1

Request: `O=C(C1CC1)N1CCc2cc(Br)cc(S(=O)(=O)N3CCOCC3)c21` 90.6

Request: `O=C(OCCN(CCOC(=O)c1ccncc1)S(=O)(=O)c1cccs1)c1ccncc1` 104

Request: `Cn1c(=O)c2c(nc3sccn32)n(C)c1=O` 87.7

Request: `COc1cc2c(cc1OC)-c1nnc(-c3cccs3)n1C(C)(C)C2` 102

Request: `COc1ccc(S(=O)(=O)N(CC(=O)N2CCN(c3ccccc3OC)CC2)c2ccccc2)cc1` 86.8

----------
Assay: MRP1 drug-resistance reversers in H69AR cells – cell-based, doxorubicin co-treatment, pilot screen (AID 601)
Details: H69AR cells + 2 uM doxorubicin, CellTiter-Glo, 72 h; at 10 µM; stronger effect = higher value
measurement_name: differential viability (reversal) (%)
Report the figure in % without appending any unit label.

As a guide, the following entries are already answered.
>>> observed_measurement("CC12CCC(C(=O)N3CCN(C(=O)C45CCC(C)(C(=O)O4)C5(C)C)CC3)(OC1=O)C2(C)C")
20.1
>>> observed_measurement("COC(=O)Cn1c(=NC(=O)CSCC(=O)Nc2cc(C)on2)sc2ccccc21")
3
>>> observed_measurement("CCOC(=O)c1ccc2[nH]c3c(c2c1)CN(C)CC3")
7.91

# query: differential viability (reversal) of entry `CCOC(=O)N1CCN(C(=O)c2ccc(CS(=O)(=O)c3ccc(OC)cc3)o2)CC1` -9.97

Request: `Cc1cccc(-n2ncc3c(NCCCO)ncnc32)c1` 7.59

----------
Documented growth inhibition across a set of compounds
Assay: S. cerevisiae growth inhibition in permissive medium (OD615), pilot counter-assay for S. cerevisiae lifespan shortening project, permissive growth control (AID 705)
Conditions: OD615, 24 h, at 10 µM, stronger effect = higher value
Report the figure in % without appending any unit label.

As a guide, the following entries are already answered.
>>> observed_measurement("COc1cccc(C2C(C(=O)c3ccc(C)o3)=C(O)C(=O)N2CCCN(C)C)c1 (stereo unspecified)")
-10.7
>>> observed_measurement("O=C(CN1CCN(c2ncccn2)CC1)N1CCN(C(c2ccccc2)c2ccccc2)CC1")
-1.1
>>> observed_measurement("CSCCC(NC(=O)c1c(C)oc2c1CCCC2)C(=O)O (stereo unspecified)")
-2.84
>>> observed_measurement("CCOC(=O)c1ccccc1NC(=O)c1ccc2c(=O)n3c(nc2c1)CCCCC3")
-5.51
>>> observed_measurement("NC(=O)CN1C(=O)C(O)(CC(=O)c2ccccc2O)c2ccccc21 (stereo unspecified)")
1.61
>>> observed_measurement("CCOC(=O)N1CCC(N2C(=O)c3ccccc3C2Nc2ccccc2C)CC1 (stereo unspecified)")
-16.1

# query: growth inhibition of entry `COCCNC(=O)CN1CCN(Cc2cccc(Cl)c2)C1=O` 6.16

Request: `CCOc1ccc(NC(=O)CCN2CCN(c3ccccc3)CC2)cc1` 4.18

Request: `COc1ccc(-n2ncc3c(N4CCC(C)CC4)ncnc32)cc1` -1.23

Request: O=C(Cc1cc(=O)[nH]c(=O)[nH]1)NCC1CCCO1 (stereo unspecified) 7.33

Request: O=C(NCc1cccnc1)NC1(C(F)(F)F)Oc2ccc(Cl)cc2O1 (stereo unspecified) -2.96

----------
Test: MRP1 drug-resistance reversers in H69AR cells – cell-based, doxorubicin co-treatment, pilot screen (AID 601)
Conditions: H69AR cells + 2 uM doxorubicin, CellTiter-Glo, 72 h; measured here: viability with 2 uM doxorubicin; at 10 µM; stronger effect = lower value
measurement_name: viability (%)
Report the figure in % without appending any unit label.

As a guide, the following entries are already answered.
>>> observed_measurement("Cc1nn(-c2ccc(F)cc2)c2c1cc(C#N)c1nc3ccccc3n12")
80.9
>>> observed_measurement("O=C(NCc1ccc2c(c1)OCO2)C1CCC(CNc2c(N3CCCCC3)c(=O)c2=O)CC1 (stereo not given)")
91.9
>>> observed_measurement("Cc1ccc(-c2cc(C(=O)Nc3cc(C)on3)c3ccccc3n2)c(C)c1")
89.9
>>> observed_measurement("Cc1ccc2c(c1)C1CCCC3C1N2CC(=O)N3Cc1ccccc1 (stereo not given)")
81.3
>>> observed_measurement("CN(C)CCN1C(=O)C(O)=C(C(=O)c2cc3ccccc3o2)C1c1ccc(N(C)C)cc1 (stereo not given)")
88.5
>>> observed_measurement("COc1cccc(NC(=O)C2CCCN(S(=O)(=O)c3cccc4cccnc34)C2)c1 (stereo not given)")
89.3
>>> observed_measurement("O=C(Nc1nnc(N2CCCCCC2)s1)c1cc(-c2ccc(Br)cc2)on1")
86.4
>>> observed_measurement("CCOC(=O)CN1CC23C=CC(O2)C(C(=O)Nc2ccc(C(C)=O)cc2)C3C1=O (stereo not given)")
94
>>> observed_measurement("O=C(c1ccc(Cl)s1)N1CCN(c2nc3ccccc3s2)CC1")
86.1

Let us examine a further case.
# query: viability of entry `CCOC(=O)N1CCN(C(=O)CSc2nnc(-c3cccc(Cl)c3)o2)CC1` 86.4

----------
Test: S. cerevisiae growth inhibition in permissive medium (OD615), pilot counter-assay for S. cerevisiae lifespan shortening project, permissive growth control (AID 705)
Settings: OD615, 24 h, at 10 µM, stronger effect = higher value
measurement_name: growth inhibition (%)
Report the figure in % without appending any unit label.

>>> observed_measurement("Cc1ccc(C2c3c(oc4ccccc4c3=O)C(=O)N2c2nnc(C(C)C)s2)o1 (centres undefined)")
-13.3
>>> observed_measurement("O=C(COc1ccc(=O)n(-c2ccccc2)n1)Nc1ccccc1")
-1.58
>>> observed_measurement("COC(=O)c1cc(-c2ccccc2)sc1NC(=O)c1cc(C)on1")
-0.31
>>> observed_measurement("CCCCn1c(CN2CCN(c3ccccc3)CC2)nc2c1c(=O)n(C)c(=O)n2C")
-4.55
>>> observed_measurement("CN1CCN(CCCNC(=O)c2ccc(CS(=O)(=O)c3ccc(Br)cc3)o2)CC1")
-7.34
>>> observed_measurement("O=C(Nc1nnc(-c2ccc(Cl)cc2)o1)C1CCCCC1")
4.85
>>> observed_measurement("Cn1c(=O)[nH]c(=O)c2[nH]c(CN3CCN(Cc4ccccc4)CC3)nc21")
-9.19
>>> observed_measurement("CC1(C)Cc2c(C#N)c(N)sc(=S)c2CO1")
21.9

# query: growth inhibition of entry `COc1ccc(OC)c2sc(NC(=O)c3ccc(S(=O)(=O)N(C)C)cc3)nc12` -19.3

Request: `Cc1ccc(Oc2ccccc2)c(NC=O)c1` -2.02

Request: `O=C(CCc1nc2ccccc2[nH]1)NC1CCCCC1` -16.3

Request: COc1ccc(C2C(C(=O)N3CCC(C)CC3)c3ccccc3C(=O)N2C)cc1 (centres undefined) -17

Request: `CCn1c(-c2cc(Br)ccc2O)n[nH]c1=S` -10

Request: `Cc1cccc(Cn2c(SCCN3CCCCC3)nc3c2c(=O)[nH]c(=O)n3C)c1` -16.1

Request: `CCC(CC)C(=O)NCCc1cc2ccc(C)cc2[nH]c1=O` 1.09

Request: CN(C)CCCN1C(=O)CSC1c1ccccc1 (centres undefined) -2.19

Request: `CCN(CC)c1ccc(NC(=O)CN2C(=O)CC(C)(C)S(=O)(=O)c3ccccc32)c(C)c1` -6.69

Request: `O=C(Cn1nc(Cc2cccnc2)c2ccccc2c1=O)Nc1ccc2c(c1)OCO2` 0.565

Request: `Cc1ccc(N=Cc2ccc(O)cc2O)cc1F` -10.6

Request: `CCOC(=O)C1CCN(S(=O)(=O)c2ccc3c4c(cccc24)C(=O)N3)CC1` -4.42

Request: CCOC(=O)C1CCCN(C(=O)Cn2nc(CC)n3c(cc4sccc43)c2=O)C1 (centres undefined) -3.41

Request: `Cn1c(=O)c2c(nc(CN3CCN(Cc4ccccc4)CC3)n2Cc2ccc(Cl)cc2)n(C)c1=O` -2.47

Request: `COc1ccc(C(=O)Nc2nncs2)c(OC)c1` -4.15

Request: Oc1c(C(c2cccs2)N2CCOCC2)sc2ncnn12 (centres undefined) 11.1

Request: `COc1ccc(-c2nn(-c3ccccc3)cc2/C=N/n2cnnc2)cc1OC` 2.04

Request: `Cc1nc2ccccc2c2oc(C(=O)N3CCN(C(=O)c4ccco4)CC3)cc12` -6.06
